From: ChEMBL document CHEMBL5634099

Listed next: entries and their corresponding MIC.
Test system: Staphylococcus aureus
assay_method_text: Antibacterial activity against vancomycin-resistant Staphylococcus aureus VRS 4 clinical isolate assessed as bacterial growth inhibition incubated for 16 to 18 hrs by CLSI based susceptibility testing method
Format: functional
experimental_setup: time 16-18 hrs
parameter: MIC (µg/mL)

| molecule | parameter | comparison_symbol | numeric_result |
| --- | --- | --- | --- |
| C[C@@H](O)[C@H]1C(=O)N2C(C(=O)O)=C(S[C@@H]3CN[C@H](C(=O)N(C)C)C3)[C@H](C)[C@H]12 [MEROPENEM] | MIC | = | 32 |
| COc1ccccc1-n1c(C)cc(/C=C2\S/C(=N/c3nccs3)NC2=O)c1C | MIC | = | 2 |
| CN[C@H](CC(C)C)C(=O)N[C@H]1C(=O)N[C@@H](CC(N)=O)C(=O)N[C@H]2C(=O)N[C@H]3C(=O)N[C@H](C(=O)N[C@H](C(=O)O)c4cc(O)cc(O)c4-c4cc3ccc4O)[C@H](O)c3ccc(c(Cl)c3)Oc3cc2cc(c3O[C@@H]2O[C@H](CO)[C@@H](O)[C@H](O)[C@H]2O[C@H]2C[C@](C)(N)[C@H](O)[C@H](C)O2)Oc2ccc(cc2Cl)[C@H]1O [VANCOMYCIN] | MIC | > | 64 |
| C[C@H]1COc2c(N3CCN(C)CC3)c(F)cc3c(=O)c(C(=O)O)cn1c23 [LEVOFLOXACIN ANHYDROUS] | MIC | > | 64 |
| COc1cccc(OC)c1C(=O)N[C@@H]1C(=O)N2[C@@H]1SC(C)(C)[C@@H]2C(=O)O [METHICILLIN] | MIC | > | 64 |

###

System: Staphylococcus aureus
assay_method_text: Antibacterial activity against vancomycin-resistant Staphylococcus aureus VRS 12 clinical isolate assessed as bacterial growth inhibition incubated for 16 to 18 hrs by CLSI based susceptibility testing method
Type: functional
experimental_setup: time 16-18 hrs
Entries and their MIC values follow.

| compound | comparison_symbol | MIC (µg/mL) |
| --- | --- | --- |
| COc1ccccc1-n1c(C)cc(/C=C2\S/C(=N/c3nccs3)NC2=O)c1C | = | 2 |
| COc1cccc(OC)c1C(=O)N[C@@H]1C(=O)N2[C@@H]1SC(C)(C)[C@@H]2C(=O)O | > | 64 |
| CN[C@H](CC(C)C)C(=O)N[C@H]1C(=O)N[C@@H](CC(N)=O)C(=O)N[C@H]2C(=O)N[C@H]3C(=O)N[C@H](C(=O)N[C@H](C(=O)O)c4cc(O)cc(O)c4-c4cc3ccc4O)[C@H](O)c3ccc(c(Cl)c3)Oc3cc2cc(c3O[C@@H]2O[C@H](CO)[C@@H](O)[C@H](O)[C@H]2O[C@H]2C[C@](C)(N)[C@H](O)[C@H](C)O2)Oc2ccc(cc2Cl)[C@H]1O | > | 64 |
| C[C@H]1COc2c(N3CCN(C)CC3)c(F)cc3c(=O)c(C(=O)O)cn1c23 [LEVOFLOXACIN ANHYDROUS] | = | 32 |
| C[C@@H](O)[C@H]1C(=O)N2C(C(=O)O)=C(S[C@@H]3CN[C@H](C(=O)N(C)C)C3)[C@H](C)[C@H]12 | = | 4 |

###

assay_method_text: Selectivity index, ratio of CC50 for African green monkey Vero cells to IC50 for Staphylococcus aureus ATCC 29213
Assay type: toxicity
experimental_setup: read-out: Selectivity Index
parameter: selectivity ratio

| smiles_structure | numeric_result |
| --- | --- |
| COc1ccccc1-n1c(C)cc(/C=C2\S/C(=N/c3nccs3)NC2=O)c1C | 80 |
